B1: KRT33B (parent)
chain: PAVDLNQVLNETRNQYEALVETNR

- Variants of: B1
- protocol notes: protein stability index of a GFP-peptide fusion (GPS, HEK-293T) (PSI 1-6); higher = more stable;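 also: lentivirally expressed fusions sorted by FACS into six bins by GFP to DsRed ratio, PSI derived from sequencing read proportions per bin multiplied by bin number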
- condition description: c terminus: a fixed tail appended
Given measured protein stability index, output 1.0 if it is greater than or equal to 4 and 0.0 if not.

Incoming: Item L9C with protein stability index of 4 or above?
Outgoing: 1.0

Incoming: Item A2F with protein stability index of 4 or above?
Outgoing: 0.0

Incoming: Item N14Y with protein stability index of 4 or above?
Outgoing: 0.0

Incoming: Item N6I with protein stability index of 4 or above?
Outgoing: 0.0

Incoming: Item P1N with protein stability index of 4 or above?
Outgoing: 1.0

Incoming: Item R13M with protein stability index of 4 or above?
Outgoing: 0.0

Incoming: Item E11C with protein stability index of 4 or above?
Outgoing: 1.0

Incoming: Item L19H with protein stability index of 4 or above?
Outgoing: 1.0

Incoming: Item A2D with protein stability index of 4 or above?
Outgoing: 1.0
